System: SN12C renal
testName: NCI-60 one-dose screen, 48 h (100 = growth as untreated, 0 = no growth, -100 = all killed)
measurementSetup: 10 µM unless noted
This is part of a sample that, as a whole, favours compounds with a hit. Of some 83,000 tested, about 20% had one in any assay.
recordedEndpoint: growth (%)
Entry rule: numbers only, all in %.

Request: Any idea what growth was measured for Cc1ccc(CNS(=O)(=O)/N=C2\NC(=O)NC2=C(Cl)Cl)cc1 ?
Response: 26.4

Request: # lookup: growth of COc1ccc(/C=N/NC(=O)c2[nH]c3ccc(Br)cc3c2-c2ccccc2)s1
Response: 50

Request: Query: growth; subject: N#Cc1c(-c2ccc(Cl)cc2)nc(SCc2ccc(F)cc2)nc1N1CCNCC1
Response: 52.2

Request: Looking for the measured growth of OC1CCN(CCCOc2c3ccc(Cl)cc3nc3c2oc2ccc(Cl)cc23)CC1 , can you help?
Response: 23.2

Request: Find the recorded growth belonging to CS(=O)(=O)c1ccc(-c2nc3ccccn3c2-c2nc3ccc([N+](=O)[O-])cc3[nH]2)cc1 and report it.
Response: 94.8

Request: Would you kindly share the measured growth for COc1ccc(-n2c(SCC(=O)Nc3ccc(-c4nc5ccccc5[nH]4)cc3)nc3ccccc3c2=O)cc1 ?
Response: 62.3

Request: May I ask what growth has been recorded for Nc1c(C(=O)Nc2ccc(Cl)cc2)sc2nc(-c3cnccn3)cc(-c3cccs3)c12 ?
Response: 66.6

Request: Give the measured growth of Cn1cc(-c2cc(N)n3nc(-c4cn(C)c5ccc(F)cc45)cc3n2)c2cc(F)ccc21 .
Response: 11.8

Request: Record request: growth value, item COc1ccc(NC2=CC(=O)C(C)=C(C)C2=O)cc1
Response: 86.4

Request: So what does the record say about growth for C#Cc1nc(C2=C(C)/C(=N/OCc3ccccc3)CC2)cs1 ?
Response: 66.6

###

Tested on: HCT-116 colon
testName: NCI-60 one-dose screen, 48 h
measurementSetup: 10 µM unless noted
About 83,000 compounds went through this panel and 20% of them were active in at least one assay; those are over-represented in the sample as a whole. Active and inactive are the calls of the source. The calls were made as follows: active = growth percent below 10; inactive = the rest.
Your response should consist of one outcome taken from t for active, f for inactive

Request: Check the results log: what was the call for CN1C(=S)N(C)C2C1NN=C1SC(c3ccccc3)=CC(=O)N12 (stereo not given) ?
Response: f

Request: Tell me the assay call for Cn1c(SCC(=O)Nc2ccc(-c3nc4ccc([N+](=O)[O-])cc4[nH]3)cc2)nc2ccccc2c1=O please.
Response: f

Request: In this assay, the call recorded for Nc1c(C(=O)Nc2ccc(Cl)cc2)sc2nc(-c3cnccn3)cc(-c3cccs3)c12 was what?
Response: f

Request: // return assay outcome for Fc1ccc(-c2cc3nc(C(Cl)Cl)nc(-c4ccccc4)n3n2)cc1
Response: t

Request: Fill in: this test's call for N[C@@H](Cc1cn(-c2ccnc3ccccc23)nn1)C(=O)O is ___
Response: f

###

Please go through the items and note down their growth.
Test system: IGROV1 ovarian
testName: NCI-60 one-dose screen, 48 h (100 = growth as untreated, 0 = no growth, -100 = all killed)
measurementSetup: 10 µM unless noted
This is part of a sample that, as a whole, favours compounds with a hit. Of some 83,000 tested, about 20% had one in any assay.
Your answer should be a plain number; it is taken to be in %.

Request: Item COc1ccc(NC(=O)c2sc3nc(-c4cnccn4)cc(-c4cccs4)c3c2N)cc1 has what recorded growth?
Response: 86.3

Request: // returns reported growth for input O=C(NNc1nc2cc(F)ccc2n2c(CN3CC4(COC4)C3)ccc12)c1cnccn1
Response: 18.6

Request: # input molecule: O=C1Nc2ccccc2Oc2ccc(S(=O)(=O)CC3CO3)cc21 (stereo not given) ; wanted: its growth
Response: 62.3

Request: Which growth value belongs to CO/N=C1\CCc2c(sc(NC(=O)c3cccc(C(F)(F)F)c3)c2C(N)=O)C1 ?
Response: 11.9

Request: # lookup: growth of COc1cc(/C=C/C(=O)c2ccc(F)cc2)ccc1Oc1nc(NCCO)nc(N2CCOCC2)n1
Response: 70.6

Request: Dear colleague, I am looking for the recorded growth of the following molecule: Cc1c(NC(=O)CSc2nc3sc4c(c3c(=O)n2-c2ccc(Cl)cc2)CCCC4)c(=O)n(-c2ccccc2)n1C
Response: 84.9

Request: Entry Fc1ccc(-c2cc3nc(C(Cl)Cl)nc(-c4ccccc4)n3n2)cc1 : reported growth = ?
Response: 46.5

Request: Which growth is listed for N#Cc1nc(-c2ccccc2)oc1S(=O)(=O)N1CCCCC1 ?
Response: 19.9

Request: Tell me the measured growth of CC(=NNc1ncnc2ccccc12)c1ccc(S(C)(=O)=O)cc1 , please.
Response: 96.5

Request: Data request, read-out growth, for Cc1cc2nc3c4cc(Cl)ccc4n(CC(=S)NCCN(C)C)c3nc2cc1C
Response: -74

Request: Consider the molecule shown here: Cc1c(Nc2nnc(SCC(=O)Nc3sc4c(c3C#N)CCCC4)s2)c(=O)n(-c2ccccc2)n1C What is its recorded growth?
Response: 104

Request: Quick one: growth of COc1cc(/C=C/C(=O)c2ccc(C(F)(F)F)cc2)ccc1Oc1nc(NCCO)nc(N2CCOCC2)n1 ?
Response: 92.5

Request: I am curious: what growth value has been reported for COc1ccc(/C=N/NC(=O)c2[nH]c3ccc(Br)cc3c2-c2ccccc2)o1 ?
Response: 19.7

Request: What does the record list as growth for CCOc1ccc2nc(NC(=O)c3ccc(C(F)(F)F)cc3)sc2c1 ?
Response: 113

Request: So what does the record say about growth for C/C(=C(/c1ccc(Cl)cc1)c1ccc(OCCN)cc1)c1ccc(C)cc1 ?
Response: 100

Request: I am curious: what growth value has been reported for CN1CCN(Cc2ccc(NC(=O)c3cncc(C#Cc4cnc5[nH]ncc5c4)c3)cc2C(F)(F)F)CC1 ?
Response: 7.92

Request: Recorded growth of CC(C)(C)Nc1nc2c(OCCc3ccccc3)cccn2c1-c1ccc(Cl)cc1 , please.
Response: 23.8

Request: Returns the measured growth for the input molecule. Input: Nc1cc(-c2c[nH]c3ccc(Cl)cc23)nc2cc(-c3c[nH]c4ccc(Cl)cc34)nn12
Response: 41.7

Request: # query: growth of entry CC(O)C(NC(=O)C1CCCN1C(=O)CNC(=O)C1CC(=O)NCC(=O)NC(Cc2c[nH]c3ccccc23)C(=O)NC(Cc2ccc(O)cc2)C(=O)NCC(=O)NC(CO)C(=O)NC(CCC(N)=O)C(=O)NC(Cc2c[nH]c3ccccc23)C(=O)N1)C(=O)NCC(=O)NC(CCC(N)=O)C(=O)NC(CCCNC(=N)N)C(=O)NC(CC(=O)O)C(=O)O (stereo not given)
Response: 105

Request: What value of growth has been recorded for this entry: COc1cc(-c2nc3ccc(-c4nnc(SCC(=O)Nc5ccc(C(C)=O)cc5)o4)cc3[nH]2)cc(OC)c1OC
Response: 99.3

Request: Which growth is listed for Cc1nc(-c2cc3ccccc3oc2=O)ccc1C(=O)/C=C/c1ccc(Cl)c(Cl)c1 ?
Response: 104

Request: Can you share its growth? I mean this molecule: NS(=O)(=O)c1cccc(Nc2nc(SCC(=O)c3ccc(Br)cc3)nc3ccccc23)c1
Response: 85.4

Request: Please report the recorded growth for Cc1sc2c(c1C)c(=O)nc1c(-c3nc(-c4ccc(F)cc4)no3)n[nH]n12 .
Response: 102

Request: Recorded growth of Cc1sc2nc(NCc3ccccc3Cl)[nH]c(=O)c2c1C , please.
Response: 90.6

Request: Report growth for O=C1c2c(c3c4cc(Br)ccc4[nH]c3c3ccc4ccccc4c23)C(=O)N1CCO please.
Response: 73.9

###

Tested on: SF-539 CNS
testName: NCI-60 one-dose screen, 48 h (100 = growth as untreated, 0 = no growth, -100 = all killed)
measurementSetup: 10 µM unless noted
This is part of a sample that, as a whole, favours compounds with a hit. Of some 83,000 tested, about 20% had one in any assay.
recordedEndpoint: growth (%)
Unit % implied. Number only.

Request: Any idea what its growth is? The compound is Clc1ccc2c(NCCCn3ccnc3)c3oc4ccc(Cl)cc4c3nc2c1
Response: 84

Request: Record request: growth value, item CS(=O)(=O)c1ccc(-c2nc3ccccn3c2/C=N/Nc2nc(-c3ccc(Br)cc3)cs2)cc1
Response: 105

Request: Param item = CN1C(=O)N(c2ccccc2)C2N=C(N/N=C/c3ccccc3)SC21 (centres undefined) ; retrieve measured growth.
Response: -6.36

Request: Need growth, item C/C(=N/NC(N)=S)c1ccc(Nc2nc(SCC(C)C)nc(-c3ccc(F)cc3)c2C#N)cc1
Response: -58.6

Request: Please give the measured growth for this compound: C=CCn1c(SCC(=O)c2ccc(Br)cc2)nnc1-c1c[nH]c2ccccc12
Response: 91.8

Request: // returns reported growth for input Clc1ccc(Cc2nnc3sc(-c4cccnc4)nn23)cc1
Response: 92.5

Request: // query growth value for entry COc1ccc2[nH]cc(-c3cc(N)n4nc(-c5c[nH]c6ccc(OC)cc56)cc4n3)c2c1
Response: -89.7

Request: Reported growth, compound Nc1cc(-c2c[nH]c3ccc(Cl)cc23)nc2cc(-c3c[nH]c4ccc(Cl)cc34)nn12 : ____
Response: 65.5

Request: Look up growth: N#Cc1c(-c2ccc(Cl)cc2)nc(SCc2ccc(F)cc2)nc1N1CCNCC1
Response: 75.9

Request: Field request: growth | item: CCCSc1nc(Nc2ccc(/C(C)=N\NC(N)=S)cc2)c(C#N)c(-c2ccc(OC)cc2)n1
Response: 18.7

Request: Bench note: what growth did O=C(CSc1nc2sc3c(c2c(=O)n1-c1ccc(Cl)cc1)CCCC3)NNC(=O)Nc1ccc(Cl)c(C(F)(F)F)c1 show?
Response: 73.1

Request: Give the measured growth of CC(C)(C)OC(=O)N1C(=O)c2c(c3c4ccccc4[nH]c3c3ccc4ccccc4c23)C1=O .
Response: 62.1

Request: Fill in the blank: the reported growth of Oc1c(Cl)cc(Cl)c2ccc(CN3CCCCC3)nc12 is ____.
Response: 29.1

Request: Field request: growth | item: O=C(N/N=C/c1ccc(Br)s1)c1[nH]c2ccc(Br)cc2c1-c1ccccc1
Response: 0.701

Request: Please give the measured growth for this compound: CN(C)CCCOc1c2ccc(Cl)cc2nc2c1oc1ccccc12
Response: -58.9

Request: # query: growth of entry COc1cc(-c2nc3ccc(-c4nnc(SCC(=O)Nc5ccc(C(C)=O)cc5)o4)cc3[nH]2)cc(OC)c1OC
Response: 97.6

Request: I have this compound here, Nc1ncc(-c2ccc3ncnc(N4CCc5cc(F)c(Cl)cc54)c3c2)cc1CO , and I need its recorded growth.
Response: -17.8

Request: Dear colleague, I am looking for the recorded growth of the following compound: C=C1CC[C@H]2[C@@](C)(CCC3OC(c4ccc(OCc5cn(C6CC(OC(C)=O)C(OC(C)=O)C(COC(C)=O)O6)nn5)cc4)OC[C@]32C)[C@@H]1/C=C/C1=CCOC1=O (some centres undefined)
Response: 84.8

Request: growth for CCN1CCN(/C(=N\c2sc(-c3ccccc3)nc2-c2ccccc2)c2ccccc2)CC1 ?
Response: 87.8
